Target: Vasopressin V2 receptor (Homo sapiens) (UniProt P30518)
Sequence (P30518 whole entry, looked up): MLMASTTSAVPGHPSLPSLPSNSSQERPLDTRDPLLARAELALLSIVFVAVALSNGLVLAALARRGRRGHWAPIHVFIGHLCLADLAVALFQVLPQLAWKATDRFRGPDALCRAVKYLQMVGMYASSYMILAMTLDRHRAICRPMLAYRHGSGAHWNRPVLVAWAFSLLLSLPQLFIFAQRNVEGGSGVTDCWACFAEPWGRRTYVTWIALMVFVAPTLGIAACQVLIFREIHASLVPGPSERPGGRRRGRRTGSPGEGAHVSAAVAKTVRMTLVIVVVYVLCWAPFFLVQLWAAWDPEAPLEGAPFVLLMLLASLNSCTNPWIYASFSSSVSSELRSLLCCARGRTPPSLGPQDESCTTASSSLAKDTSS
Assay: vasopressin V2 receptor agonist activity, SAR follow-up, selectivity assay for GPR35 antagonist project, imaging, beta-arrestin-GFP, U2OS, agonist mode (AID 463201)
Details: U2OS V2R beta-arrestin-GFP translocation imaging, 40 min; at 10 µM; active compounds read high
For each entry below, report its activation value.
Write the value in % as a bare number.

Briefly, activation measured for Clc1ccc(Cn2ncc3c(N4CCN(c5ccccc5)CC4)ncnc32)cc1 : -0.08

Briefly, activation measured for O=C(Nc1ccc2nc(SCc3ccccc3)sc2c1)c1ccccc1C(=O)N1CCOCC1 : -0.18

Briefly, activation measured for Cc1nc(N2CCC(C)CC2)c2c(C)c(C(=O)Nc3ccc4c(c3)OCCO4)sc2n1 : -0.13

Briefly, activation measured for Cc1ccc(Cn2ncc3c(N4CCN(c5ccccc5C)CC4)ncnc32)cc1 : -0.08

Briefly, activation measured for CCc1ccc(/C=C2\SC(=S)N(CCCC(=O)Nc3ccc(C(=O)O)cc3)C2=O)cc1 : -0.5

Briefly, activation measured for CC(/C=C1\SC(=S)N(CCCC(=O)Nc2ccc(C(=O)O)cc2)C1=O)=C\c1ccccc1 : -0.11

Briefly, activation measured for O=C(CCCN1C(=O)/C(=C/c2ccc3c(c2)OCO3)SC1=S)Nc1cccc(C(=O)O)c1 : -0.29

Briefly, activation measured for O=C(CCCN1C(=O)/C(=C\c2ccccc2)SC1=S)Nc1cccc(C(=O)O)c1 : 0.66

Briefly, activation measured for COc1ccc(/C=C2\SC(=S)N(CCCC(=O)Nc3ccc(O)cc3)C2=O)cc1 : -0.03

Briefly, activation measured for COc1cccc(/C=C2\SC(=S)N(CCCC(=O)Nc3ccc(C(=O)O)cc3)C2=O)c1 : -0.18

Briefly, activation measured for CC(C)c1ccc(NC(=O)CSc2nc3ccsc3c(=O)n2Cc2ccc(C(=O)O)cc2)cc1 : 0.05

Briefly, activation measured for O=C(CCCN1C(=O)S/C(=C\C=C\c2ccccc2)C1=O)Nc1ccc(C(=O)O)cc1 : 0.11

Briefly, activation measured for COc1ccc(/C=C2\SC(=S)N(CCCC(=O)Nc3cccc(C(=O)O)c3)C2=O)cc1OC : -0.11

Briefly, activation measured for O=C(Nc1ccc2nc(SCc3ccc(Cl)cc3)sc2c1)c1ccccc1C(=O)N1CCOCC1 : 0.71

Briefly, activation measured for CCOC(=O)c1ccc(NC(=O)CCCN2C(=O)/C(=C/c3ccc(C)cc3)SC2=S)cc1 : 0.05

Briefly, activation measured for O=C(CCCN1C(=O)/C(=C/c2ccc3c(c2)OCO3)SC1=S)Nc1ccc(C(=O)O)cc1 : -0.34

Briefly, activation measured for Cc1ccccc1N1CCN(c2ncnc3c2cnn3Cc2ccc(Cl)cc2)CC1 : -0.16

Briefly, activation measured for Cc1ccc(/C=C2\SC(=S)N(CCCC(=O)Nc3ccc(O)cc3)C2=O)cc1 : -0.18

Briefly, activation measured for O=C(CCCN1C(=O)/C(=C/c2ccc3c(c2)OCO3)SC1=S)Nc1ccc(C(=O)O)c(O)c1 : 0.21

Briefly, activation measured for CCOc1ccc(NC(=O)CSc2nc3ccsc3c(=O)n2Cc2ccc(C(=O)O)cc2)cc1 : 0.24

Briefly, activation measured for CC(/C=C1\SC(=S)N(CCCC(=O)Nc2ccc(C(=O)O)c(O)c2)C1=O)=C\c1ccccc1 : 0.21

Briefly, activation measured for O=C(CCCN1C(=O)S/C(=C/c2ccccc2)C1=S)Nc1ccc(C(=O)O)cc1 : -0.21

Briefly, activation measured for O=C(CCCN1C(=O)/C(=C/c2ccccc2)SC1=S)Nc1ccc(C(=O)O)c(O)c1 : 1.45

Briefly, activation measured for Cc1c(C(=O)Nc2ccc3c(c2)OCCO3)sc2ncnc(N3CCC(C)CC3)c12 : -0.03

Briefly, activation measured for COc1ccc(/C=C2/SC(=S)N(CCCC(=O)Nc3ccc(O)cc3)C2=O)cc1 : -0.32

Briefly, activation measured for CC(C)(C)c1ccc(OCCC(=O)NCCc2ccc(S(N)(=O)=O)cc2)cc1 : -0.05

Briefly, activation measured for COc1ccc(/C=C2\SC(=S)N(CCCC(=O)Nc3ccc(C(=O)O)c(O)c3)C2=O)cc1OC : -0.24

Briefly, activation measured for Cc1ccc(/C=C2\SC(=S)N(CCCC(=O)Nc3cccc(C(=O)O)c3)C2=O)cc1 : -0.08

Briefly, activation measured for O=C(CCCN1C(=O)S/C(=C/C=C/c2ccccc2)C1=O)Nc1ccc(C(=O)O)cc1 : -0.18

Briefly, activation measured for O=C(CCCN1C(=O)/C(=C\c2ccccc2)SC1=S)Nc1ccc(C(=O)O)cc1 : 0.29
